Tested on: SR
Assay details: Cytotoxicity against human SR cells assessed as cell growth at 10 uM after 48 hrs by SRB assay relative to untreated control
Format: functional
Details: read-out: Activity
Form field: growth at 10 µM (one value per entry).

| Given smiles | growth at 10 µM |
| --- | --- |
| Cc1ccc(C2=Nc3nc4ccccn4c3C(=O)[C@H](Cc3ccccc3)N2)cc1 | 89.7% |
| C[C@H]1NC(c2ccc(Br)cc2)=Nc2nc3ccccn3c2C1=O | 77.7% |
| O=C1c2c(nc3ccccn23)NC(=O)N2CCC[C@@H]12 | 126% |

---

Organism: Ovis aries
Assay details: Inhibition of sheep brain tubulin polymerization at 100 uM after 40 mins by DAPI staining-based fluorescence assay
Please enter true where inhibition is greater than or equal to 8%, and false where it is lower.

| Given smiles | Category |
| --- | --- |
| COc1ccc(C2=Nc3nc4ccccn4c3C(=O)[C@H](C)N2)cc1 | true |
| Cc1ccc(C2=Nc3nc4ccccn4c3C(=O)[C@H](C)N2)cc1 | true |
| C[C@@H]1NC(c2ccccc2)=Nc2nc3ccccn3c2C1=O | false |
| C[C@@H]1NC(c2ccc(N(C)C)cc2)=Nc2nc3ccccn3c2C1=O | true |
| C[C@H]1NC(c2ccc(Br)cc2)=Nc2nc3ccccn3c2C1=O | true |
| C[C@@H]1NC(c2ccc([N+](=O)[O-])cc2)=Nc2nc3ccccn3c2C1=O | true |

---

Test system: RPMI-8226
Assay details: Cytotoxicity against human RPMI8226 cells assessed as cell growth at 10 uM after 48 hrs by SRB assay relative to untreated control
Format: functional
Details: RPMI-8226, 48 h, read-out: Activity

| Given smiles | Target or system | growth at 10 µM [%] |
| --- | --- | --- |
| COc1ccc(C2=Nc3nc4ccccn4c3C(=O)[C@H](C)N2)cc1 | RPMI-8226 | 88.5 |
| C[C@H]1NC(c2ccc(Br)cc2)=Nc2nc3ccccn3c2C1=O | RPMI-8226 | 91 |
| COc1ccc(C2=Nc3nc4ccccn4c3C(=O)[C@H](Cc3ccccc3)N2)cc1 | RPMI-8226 | 98.1 |
| C[C@@H]1NC(c2ccc(N(C)C)cc2)=Nc2nc3ccccn3c2C1=O | RPMI-8226 | 84.9 |
| Cc1ccc(C2=Nc3nc4ccccn4c3C(=O)[C@@H]3CCCN23)cc1 | RPMI-8226 | 105 |
| Cc1ccc(C2=Nc3nc4ccccn4c3C(=O)[C@H](Cc3ccccc3)N2)cc1 | RPMI-8226 | 107 |
| Cc1ccc(C2=Nc3nc4ccccn4c3C(=O)[C@H](C)N2)cc1 | RPMI-8226 | 88.6 |
| O=C1c2c(nc3ccccn23)N=C(c2ccccc2)N2CCC[C@@H]12 | RPMI-8226 | 96.5 |
| C[C@@H]1NC(c2ccc(Br)cc2)=Nc2nc3ccccn3c2C1=O | RPMI-8226 | 94 |
| O=C1Nc2nc3ccccn3c2C(=O)[C@H](Cc2ccccc2)N1 | RPMI-8226 | 105 |
| O=C1c2c(nc3ccccn23)NC(=O)N2CCC[C@@H]12 | RPMI-8226 | 103 |
| C[C@@H]1NC(c2ccccc2)=Nc2nc3ccccn3c2C1=O | RPMI-8226 | 85.7 |
| Cc1ccccc1C1=Nc2nc3ccccn3c2C(=O)[C@H](Cc2ccccc2)N1 | RPMI-8226 | 98.4 |

---

System: T47D
Assay details: Cytotoxicity against human T47D cells assessed as cell growth at 10 uM after 48 hrs by SRB assay relative to untreated control
Format: functional
Details: read-out: Activity

| Given smiles | growth at 10 µM |
| --- | --- |
| C[C@@H]1NC(c2ccccc2)=Nc2nc3ccccn3c2C1=O | 92.8% |
| Cc1ccccc1C1=Nc2nc3ccccn3c2C(=O)[C@H](Cc2ccccc2)N1 | 104% |
| COc1ccc(C2=Nc3nc4ccccn4c3C(=O)[C@H](Cc3ccccc3)N2)cc1 | 98.8% |
| O=C1Nc2nc3ccccn3c2C(=O)[C@H](Cc2ccccc2)N1 | 103% |
| Cc1ccc(C2=Nc3nc4ccccn4c3C(=O)[C@@H]3CCCN23)cc1 | 89.8% |
| Cc1ccc(C2=Nc3nc4ccccn4c3C(=O)[C@H](C)N2)cc1 | 103% |
| C[C@@H]1NC(c2ccc(N(C)C)cc2)=Nc2nc3ccccn3c2C1=O | 80.7% |
| C[C@H]1NC(c2ccc(Br)cc2)=Nc2nc3ccccn3c2C1=O | 85% |
| O=C1c2c(nc3ccccn23)NC(=O)N2CCC[C@@H]12 | 92.8% |
| O=C1c2c(nc3ccccn23)N=C(c2ccccc2)N2CCC[C@@H]12 | 93.6% |
| Cc1ccc(C2=Nc3nc4ccccn4c3C(=O)[C@H](Cc3ccccc3)N2)cc1 | 96.5% |
| C[C@@H]1NC(c2ccc(Br)cc2)=Nc2nc3ccccn3c2C1=O | 67.2% |
| COc1ccc(C2=Nc3nc4ccccn4c3C(=O)[C@H](C)N2)cc1 | 97% |

---

Tested on: CCRF-CEM
Assay details: Cytotoxicity against human CCRF-CEM cells assessed as cell growth at 10 uM after 48 hrs by SRB assay relative to untreated control
Assay type: functional
Details: read-out: Activity
Measurement type: growth at 10 µM (%)

| Given smiles | Unit tag | Reading |
| --- | --- | --- |
| C[C@H]1NC(c2ccc(Br)cc2)=Nc2nc3ccccn3c2C1=O | % | 96.9 |
| Cc1ccc(C2=Nc3nc4ccccn4c3C(=O)[C@H](Cc3ccccc3)N2)cc1 | % | 103 |
| O=C1Nc2nc3ccccn3c2C(=O)[C@H](Cc2ccccc2)N1 | % | 113 |
| C[C@@H]1NC(c2ccc(N(C)C)cc2)=Nc2nc3ccccn3c2C1=O | % | 88.7 |
| COc1ccc(C2=Nc3nc4ccccn4c3C(=O)[C@H](Cc3ccccc3)N2)cc1 | % | 99.4 |
| Cc1ccc(C2=Nc3nc4ccccn4c3C(=O)[C@@H]3CCCN23)cc1 | % | 50.2 |
| COc1ccc(C2=Nc3nc4ccccn4c3C(=O)[C@H](C)N2)cc1 | % | 91.7 |

---

Form field: growth at 10 µM (one value per entry).
Assay details: Cytotoxicity against human NCI-ADR-RES cells assessed as cell growth at 10 uM after 48 hrs by SRB assay relative to untreated control
Format: functional
Details: read-out: Activity

| Given smiles | Unit tag | growth at 10 µM |
| --- | --- | --- |
| O=C1c2c(nc3ccccn23)N=C(c2ccccc2)N2CCC[C@@H]12 | % | 97.7 |
| Cc1ccc(C2=Nc3nc4ccccn4c3C(=O)[C@H](C)N2)cc1 | % | 79.6 |
| O=C1Nc2nc3ccccn3c2C(=O)[C@H](Cc2ccccc2)N1 | % | 98.7 |
| C[C@@H]1NC(c2ccccc2)=Nc2nc3ccccn3c2C1=O | % | 97.4 |
| C[C@@H]1NC(c2ccc(Br)cc2)=Nc2nc3ccccn3c2C1=O | % | 39.4 |
| Cc1ccc(C2=Nc3nc4ccccn4c3C(=O)[C@@H]3CCCN23)cc1 | % | 94.9 |
| C[C@H]1NC(c2ccc(Br)cc2)=Nc2nc3ccccn3c2C1=O | % | 95.7 |
| Cc1ccccc1C1=Nc2nc3ccccn3c2C(=O)[C@H](Cc2ccccc2)N1 | % | 95.4 |
| COc1ccc(C2=Nc3nc4ccccn4c3C(=O)[C@H](C)N2)cc1 | % | 96.5 |
| C[C@@H]1NC(c2ccc(N(C)C)cc2)=Nc2nc3ccccn3c2C1=O | % | 80.3 |
| Cc1ccc(C2=Nc3nc4ccccn4c3C(=O)[C@H](Cc3ccccc3)N2)cc1 | % | 87.1 |
| O=C1c2c(nc3ccccn23)NC(=O)N2CCC[C@@H]12 | % | 100 |
| COc1ccc(C2=Nc3nc4ccccn4c3C(=O)[C@H](Cc3ccccc3)N2)cc1 | % | 89.2 |

---

Tested on: SW-620
Assay details: Cytotoxicity against human SW620 cells assessed as cell growth at 10 uM after 48 hrs by SRB assay relative to untreated control
Assay type: functional
Details: SW-620, 48 h, read-out: Activity
Measurement type: growth at 10 µM (%)

| Given smiles | Reading |
| --- | --- |
| Cc1ccc(C2=Nc3nc4ccccn4c3C(=O)[C@H](Cc3ccccc3)N2)cc1 | 102 |
| Cc1ccc(C2=Nc3nc4ccccn4c3C(=O)[C@@H]3CCCN23)cc1 | 101 |
| C[C@@H]1NC(c2ccc(Br)cc2)=Nc2nc3ccccn3c2C1=O | 38 |
| Cc1ccccc1C1=Nc2nc3ccccn3c2C(=O)[C@H](Cc2ccccc2)N1 | 103 |
| O=C1Nc2nc3ccccn3c2C(=O)[C@H](Cc2ccccc2)N1 | 101 |
| Cc1ccc(C2=Nc3nc4ccccn4c3C(=O)[C@H](C)N2)cc1 | 82.3 |
| O=C1c2c(nc3ccccn23)NC(=O)N2CCC[C@@H]12 | 106 |
| C[C@H]1NC(c2ccc(Br)cc2)=Nc2nc3ccccn3c2C1=O | 97 |
| C[C@@H]1NC(c2ccccc2)=Nc2nc3ccccn3c2C1=O | 93.5 |
| C[C@@H]1NC(c2ccc(N(C)C)cc2)=Nc2nc3ccccn3c2C1=O | 85.3 |
| O=C1c2c(nc3ccccn23)N=C(c2ccccc2)N2CCC[C@@H]12 | 102 |
| COc1ccc(C2=Nc3nc4ccccn4c3C(=O)[C@H](C)N2)cc1 | 106 |
| COc1ccc(C2=Nc3nc4ccccn4c3C(=O)[C@H](Cc3ccccc3)N2)cc1 | 100 |
